Values were extracted from the supplement of paper PMC6555819.

Test system: LXRb homodimer (NR concentration 270 nM)
method-notes: PBM binding z-score (relative to random genomic background probes); higher = stronger binding; sequences stand for … in GC…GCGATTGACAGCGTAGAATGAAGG
measured-property: PBM binding z-score
Just the number, please, no unit attached.

sequence-string	PBM binding z-score
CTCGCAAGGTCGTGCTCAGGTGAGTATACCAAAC	-0.498
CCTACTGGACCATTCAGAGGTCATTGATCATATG	1.41
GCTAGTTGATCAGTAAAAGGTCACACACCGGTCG	0.478

[Q] GET /values?readout=PBM binding z-score&system=LXRb homodimer (NR concentration 270 nM)&item= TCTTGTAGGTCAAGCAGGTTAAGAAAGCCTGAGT
[A] 0.725

[Q] Notebook: pull reported PBM binding z-score for LXRb homodimer (NR concentration 270 nM), entry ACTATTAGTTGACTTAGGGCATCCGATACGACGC
[A] 0.3

----------
Test system: THRa:RXRa (NR concentration 90 nM, RXRa partner concentration 90 nM)
method-notes: PBM binding z-score (relative to random genomic background probes); higher = stronger binding; sequences stand for … in GC…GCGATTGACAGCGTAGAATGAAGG
measured-property: PBM binding z-score

[Q] PBM binding z-score lookup needed for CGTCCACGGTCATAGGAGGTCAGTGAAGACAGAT , thanks.
[A] 4.28

[Q] Request the reported PBM binding z-score associated with CGAACTAAGTCAAGGACAGTGAATCTCCGCACGC
[A] 1.45

[Q] For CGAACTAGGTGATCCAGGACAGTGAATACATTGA , what is its reported PBM binding z-score?
[A] 1.38

[Q] What value of measured PBM binding z-score is listed for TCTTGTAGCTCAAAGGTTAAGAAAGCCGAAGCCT ?
[A] 1.05

----------
System: RARb:RXRa (NR concentration 270 nM, RXRa partner concentration 90 nM)
method-notes: PBM binding z-score (relative to random genomic background probes); higher = stronger binding; sequences stand for … in GC…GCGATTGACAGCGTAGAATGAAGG
measured-property: PBM binding z-score
Reply: number alone, nothing else.

Check out these entries, answers already filled in.
sequence-string	PBM binding z-score
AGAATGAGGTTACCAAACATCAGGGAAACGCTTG	1.82
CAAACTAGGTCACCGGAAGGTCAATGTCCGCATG	5.25

[Q] Look up PBM binding z-score: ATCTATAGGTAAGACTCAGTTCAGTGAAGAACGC
[A] 0.432

[Q] Fill blank: measured PBM binding z-score of the sequence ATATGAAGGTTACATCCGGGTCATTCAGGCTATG is ____.
[A] 3.16

[Q] Would you kindly share the measured PBM binding z-score for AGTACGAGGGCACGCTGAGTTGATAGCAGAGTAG ?
[A] 2.64

----------
Tested on: VDR homodimer (NR concentration 270 nM)
method-notes: PBM binding z-score (relative to random genomic background probes); higher = stronger binding; sequences stand for … in GC…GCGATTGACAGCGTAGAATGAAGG
Label 1.0 when PBM binding z-score >= 0.3; otherwise 0.0.

sequence-string	label-class
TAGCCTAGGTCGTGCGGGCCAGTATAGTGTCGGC	0.0
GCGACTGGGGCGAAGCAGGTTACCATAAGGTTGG	0.0
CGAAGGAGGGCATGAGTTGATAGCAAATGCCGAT	1.0
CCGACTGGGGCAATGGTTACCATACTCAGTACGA	0.0

[Q] Confirm if PBM binding z-score reported for the sequence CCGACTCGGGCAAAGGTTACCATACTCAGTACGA is 0.3 or above.
[A] 0.0

----------
Tested on: PXR:RXRa (NR concentration 270 nM, RXRa partner concentration 90 nM)
method-notes: PBM binding z-score (relative to random genomic background probes); higher = stronger binding; sequences stand for … in GC…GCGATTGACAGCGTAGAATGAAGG
measured-property: PBM binding z-score
// response body must contain only the number

sequence-string	PBM binding z-score
CGTCCAAGGTCCGCAGGTCAGTGAAAGCGACGTG	0.139
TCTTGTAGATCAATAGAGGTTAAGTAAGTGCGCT	3.96

Proceed to the following item.
[Q] Notebook: pull reported PBM binding z-score for PXR:RXRa (NR concentration 270 nM, RXRa partner concentration 90 nM), entry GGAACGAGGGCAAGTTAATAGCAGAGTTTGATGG
[A] 0.548

----------
Test system: PPARg:RXRa (NR concentration 180 nM, RXRa partner concentration 90 nM)
method-notes: PBM binding z-score (relative to random genomic background probes); higher = stronger binding; sequences stand for … in GC…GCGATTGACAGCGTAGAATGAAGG
Measured PBM binding z-score, listed per entry for reference.
Note: the reply should be a number with no unit written.

Some solved cases for reference:
sequence-string	system-tested	measured-property	readout-number
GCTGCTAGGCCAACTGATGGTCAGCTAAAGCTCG	PPARg:RXRa (NR concentration 180 nM, RXRa partner concentration 90 nM)	PBM binding z-score	-0.468
CAAACTAGGTCACGAAAGTTCAAAGTCGAATGAC	PPARg:RXRa (NR concentration 180 nM, RXRa partner concentration 90 nM)	PBM binding z-score	9.94
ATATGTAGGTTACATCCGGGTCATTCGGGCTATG	PPARg:RXRa (NR concentration 180 nM, RXRa partner concentration 90 nM)	PBM binding z-score	5.83

[Q] Could you share which PBM binding z-score value was measured for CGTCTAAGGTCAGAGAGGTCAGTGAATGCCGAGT ?
[A] 4.02

[Q] # PBM binding z-score lookup, item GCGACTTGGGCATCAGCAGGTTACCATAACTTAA
[A] 0.0729

[Q] // query PBM binding z-score value for entry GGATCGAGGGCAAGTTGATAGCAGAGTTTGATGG
[A] 0.962

[Q] // returns reported PBM binding z-score for input CGTCAAAGTTGAAGGTAACGTAACAGAAAGCAGC
[A] 0.813

----------
Tested on: PPARg:RXRa 30nM:10nM, anti-RXR (NR concentration 30 nM, RXRa partner concentration 10 nM)
method-notes: PBM binding z-score (relative to random genomic background probes); higher = stronger binding; sequences stand for … in GC…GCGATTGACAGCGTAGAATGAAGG
measured-property: PBM binding z-score
API doc: respond with a numeric literal and nothing else, no unit.

sequence-string	PBM binding z-score
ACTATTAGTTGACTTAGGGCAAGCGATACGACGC	0.267

[Q] Provide value of PBM binding z-score for this record tested with PPARg:RXRa 30nM:10nM, anti-RXR (NR concentration 30 nM, RXRa partner concentration 10 nM): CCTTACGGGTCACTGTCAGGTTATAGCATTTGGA
[A] 1.22

[Q] Param readout= PBM binding z-score; system= PPARg:RXRa 30nM:10nM, anti-RXR (NR concentration 30 nM, RXRa partner concentration 10 nM); entry= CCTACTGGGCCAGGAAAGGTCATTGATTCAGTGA ; returns value.
[A] 0.929

[Q] Could you share what PBM binding z-score was measured for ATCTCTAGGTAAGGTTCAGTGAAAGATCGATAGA , tested on PPARg:RXRa 30nM:10nM, anti-RXR (NR concentration 30 nM, RXRa partner concentration 10 nM)?
[A] 0.962

----------
System: LXRb:RXRa (NR concentration 270 nM, RXRa partner concentration 90 nM)
method-notes: PBM binding z-score (relative to random genomic background probes); higher = stronger binding; sequences stand for … in GC…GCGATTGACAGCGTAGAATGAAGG
Readings of PBM binding z-score for the listed sequences

Record excerpt, results attached:
sequence-string	PBM binding z-score
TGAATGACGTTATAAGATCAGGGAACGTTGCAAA	-0.274
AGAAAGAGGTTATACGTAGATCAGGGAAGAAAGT	2.19
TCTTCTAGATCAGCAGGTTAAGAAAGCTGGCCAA	0.225

[Q] Given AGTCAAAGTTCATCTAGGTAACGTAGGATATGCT , state its recorded PBM binding z-score.
[A] 3.66

[Q] Quick one: PBM binding z-score for TGAATGAGGTTATAAGATCAGGCAACGTTGCAAA ?
[A] 1.22

----------
Test system: PPARg:RXRa IVT, anti-PPARg (NR concentration 270 nM, RXRa partner concentration 90 nM)
method-notes: PBM binding z-score (relative to random genomic background probes); higher = stronger binding; sequences stand for … in GC…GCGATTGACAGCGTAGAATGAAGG
PBM binding z-score vs 2: at or above is criterion met, below is criterion not met.

These recorded examples may help you get a feel for the data.
sequence-string	label-class
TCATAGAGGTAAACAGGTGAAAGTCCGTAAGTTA	criterion met
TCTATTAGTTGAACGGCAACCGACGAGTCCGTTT	criterion not met
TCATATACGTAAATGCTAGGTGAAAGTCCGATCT	criterion not met
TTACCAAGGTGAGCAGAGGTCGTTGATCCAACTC	criterion met
AGAATGCGGTTATTAAGATCAGGGAATTGCGGTC	criterion not met
ATATCTAGGTAACAAGTTCAGTGAAAGAGAGGAC	criterion met
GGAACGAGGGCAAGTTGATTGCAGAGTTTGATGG	criterion met
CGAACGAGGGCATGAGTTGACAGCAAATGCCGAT	criterion met

Attention now turns to another entry.
[Q] In plain terms: is recorded PBM binding z-score at least 2 for ACTATTAGCTGAGACGAGGGCAACCGATAGGTTG ?
[A] criterion not met
